measurement-notes: Clearance in rat at 5 mg/kg, iv
Format: ADME, organism-based
Set-up: dose 5 mg/kg, route intravenous
test-settings: in vivo
reported-metric: clearance (mL/min/kg)
Field format: number, assumed mL/min/kg, no unit text.

Query string: // returns reported clearance for input COCCN(C)c1ccc(NC(=O)c2nc(-c3ccccc3)oc2C(F)(F)F)cn1
Result string: 13.5

###

Readings of inhibition at 1 µM for the listed molecules
target-or-test-system: UniProt Q12809
measurement-notes: Inhibition of human ERG-mediated current expressed in CHO cells at 1 uM by patch clamp method
Type: cell-based
test-settings: CHO cells expressing human ERG
Field format: number, assumed %, no unit text.

Query string: // returns reported inhibition at 1 µM for input COC(=O)N1CCC(c2ccc(NC(=O)c3nc(-c4ccccc4)oc3C(F)(F)F)cn2)CC1
Result string: 16

Query string: // returns reported inhibition at 1 µM for input COC(=O)N1CCN(c2ncc(NC(=O)c3nc(-c4ccccc4)oc3C(F)(F)F)cn2)CC1
Result string: 28

Query string: // returns reported inhibition at 1 µM for input COCCN(C)c1ccc(NC(=O)c2nc(-c3ccccc3)oc2C(F)(F)F)cc1
Result string: 18

Query string: // returns reported inhibition at 1 µM for input O=C(Nc1ccc(N2CC(F)(F)C2)nc1)c1nc(-c2ccccc2)oc1C(F)(F)F
Result string: 17

// switching to the query molecule
Query string: // returns reported inhibition at 1 µM for input O=C(Nc1ccc(N2CCN(C(=O)[C@H]3CC[C@H](C(=O)O)CC3)CC2)cc1)c1nc(-c2ccccc2)oc1C(F)(F)F
Result string: 5

###

measurement-notes: Volume of distribution in Hanover Wistar rat at 5 mg/kg, iv
Format: ADME, organism-based
Design: dose 5 mg/kg, route intravenous
test-settings: in vivo
reported-metric: Vd (L/kg)
Field format: number, assumed L/kg, no unit text.

Query string: // returns reported Vd for input O=C(Nc1ccc(C2CCN(C(=O)[C@H]3CC[C@H](C(=O)O)CC3)CC2)cc1)c1nc(-c2ccccc2)oc1C(F)(F)F
Result string: 0.27

###

target-or-test-system: hERG (Homo sapiens, UniProt Q12809)
Sequence (Q12809 whole entry): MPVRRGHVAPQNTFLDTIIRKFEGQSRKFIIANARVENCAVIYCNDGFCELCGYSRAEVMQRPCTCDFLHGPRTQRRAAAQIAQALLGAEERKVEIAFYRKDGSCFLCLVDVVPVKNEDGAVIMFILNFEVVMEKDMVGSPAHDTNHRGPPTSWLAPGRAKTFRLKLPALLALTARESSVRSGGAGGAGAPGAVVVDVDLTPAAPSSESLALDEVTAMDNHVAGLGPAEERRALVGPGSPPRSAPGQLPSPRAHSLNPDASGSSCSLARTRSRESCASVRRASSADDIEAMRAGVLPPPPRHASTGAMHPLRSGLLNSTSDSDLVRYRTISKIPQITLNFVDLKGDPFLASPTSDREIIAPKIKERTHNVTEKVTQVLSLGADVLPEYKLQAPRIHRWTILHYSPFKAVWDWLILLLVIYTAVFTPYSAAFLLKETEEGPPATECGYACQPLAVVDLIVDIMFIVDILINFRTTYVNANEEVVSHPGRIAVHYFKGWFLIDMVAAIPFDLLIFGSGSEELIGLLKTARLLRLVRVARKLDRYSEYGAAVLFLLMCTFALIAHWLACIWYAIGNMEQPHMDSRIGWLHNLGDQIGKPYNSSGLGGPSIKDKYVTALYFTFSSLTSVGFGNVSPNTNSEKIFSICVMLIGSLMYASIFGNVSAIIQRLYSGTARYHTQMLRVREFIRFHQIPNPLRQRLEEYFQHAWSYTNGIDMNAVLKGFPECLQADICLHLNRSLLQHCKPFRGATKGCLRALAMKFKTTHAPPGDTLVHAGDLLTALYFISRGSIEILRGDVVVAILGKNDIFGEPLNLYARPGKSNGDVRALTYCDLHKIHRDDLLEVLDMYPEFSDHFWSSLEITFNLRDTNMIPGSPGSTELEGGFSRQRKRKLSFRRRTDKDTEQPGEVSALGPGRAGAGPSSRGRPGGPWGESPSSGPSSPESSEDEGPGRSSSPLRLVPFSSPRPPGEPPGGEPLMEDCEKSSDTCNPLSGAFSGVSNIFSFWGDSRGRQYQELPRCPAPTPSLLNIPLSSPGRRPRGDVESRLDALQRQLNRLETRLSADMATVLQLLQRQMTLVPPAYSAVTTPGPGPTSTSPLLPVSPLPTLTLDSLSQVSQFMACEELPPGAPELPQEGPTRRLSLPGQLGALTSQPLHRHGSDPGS
measurement-notes: Inhibition of human ERG-mediated current expressed in CHO cells at 3 uM by patch clamp method
Type: cell-based
test-settings: CHO cells expressing human ERG
reported-metric: inhibition at 3 µM (%)
Field format: number, assumed %, no unit text.

Query string: // returns reported inhibition at 3 µM for input O=C(Nc1ccc(C2CCN(C(=O)[C@H]3CC[C@@H](C(=O)O)CC3)CC2)cc1)c1nc(-c2ccccc2)oc1C(F)(F)F
Result string: 21

Query string: // returns reported inhibition at 3 µM for input O=C(Nc1ccc(N2CCN(C(=O)C3CC3)CC2)cc1)c1nc(-c2ccccc2)oc1C(F)(F)F
Result string: 35

More entries:
Query string: // returns reported inhibition at 3 µM for input COC(=O)N1CCN(c2ccc(NC(=O)c3nc(-c4ccccc4)oc3C(F)(F)F)cc2)CC1
Result string: 16

Query string: // returns reported inhibition at 3 µM for input O=C(Nc1ccc(C2CCN(C(=O)C3CC3)CC2)cc1)c1nc(-c2ccccc2)oc1C(F)(F)F
Result string: 13

###

measurement-notes: Solubility of the compound at mp 217 degC
Format: physicochemical
reported-metric: solubility (µg/mL)
Field format: number, assumed µg/mL, no unit text.

Query string: // returns reported solubility for input O=C(Nc1ccc(C2CCN(C(=O)[C@H]3CC[C@H](C(=O)O)CC3)CC2)cc1)c1nc(-c2ccccc2)oc1C(F)(F)F
Result string: 15.4

###

measurement-notes: Oral bioavailability in Beagle dog at 10 mg/kg
Type: ADME, organism-based, Canis lupus familiaris
test-settings: in vivo
reported-metric: bioavailability

Query string: // returns reported bioavailability for input O=C(Nc1ccc(C2CCN(C(=O)[C@H]3CC[C@H](C(=O)O)CC3)CC2)cc1)c1nc(-c2ccccc2)oc1C(F)(F)F
Result string: 33%

###

measurement-notes: Half life in Hanover Wistar rat at 5 mg/kg, iv
Assay type: ADME, organism-based
Parameters: dose 5 mg/kg, route intravenous
test-settings: in vivo
reported-metric: half-life (h)
Field format: number, assumed h, no unit text.

Query string: // returns reported half-life for input O=C(Nc1ccc(C2CCN(C(=O)[C@H]3CC[C@H](C(=O)O)CC3)CC2)cc1)c1nc(-c2ccccc2)oc1C(F)(F)F
Result string: 8.6

###

measurement-notes: Oral bioavailability in rat at 5 mg/kg
Format: ADME, organism-based
test-settings: in vivo
reported-metric: bioavailability (%)
Field format: number, assumed %, no unit text.

Query string: // returns reported bioavailability for input COCCN(C)c1ccc(NC(=O)c2nc(-c3ccccc3)oc2C(F)(F)F)cn1
Result string: 77

###

measurement-notes: Tmax in Beagle dog at 10 mg/kg, po
Assay type: ADME, organism-based, Canis lupus familiaris
Set-up: dose 10 mg/kg, route oral
test-settings: in vivo
reported-metric: Tmax (h)
Field format: number, assumed h, no unit text.

Query string: // returns reported Tmax for input O=C(Nc1ccc(C2CCN(C(=O)[C@H]3CC[C@H](C(=O)O)CC3)CC2)cc1)c1nc(-c2ccccc2)oc1C(F)(F)F
Result string: 2

###

measurement-notes: Clearance in Beagle dog at 5 mg/kg, iv
Assay type: ADME, organism-based, Canis lupus familiaris
Design: dose 5 mg/kg, route intravenous
test-settings: in vivo
reported-metric: clearance (mL/min/kg)
Field format: number, assumed mL/min/kg, no unit text.

Query string: // returns reported clearance for input O=C(Nc1ccc(C2CCN(C(=O)[C@H]3CC[C@H](C(=O)O)CC3)CC2)cc1)c1nc(-c2ccccc2)oc1C(F)(F)F
Result string: 1.3

###

target-or-test-system: hERG (Homo sapiens, UniProt Q12809)
measurement-notes: Inhibition of human ERG-mediated current expressed in CHO cells by patch clamp method
Type: cell-based
test-settings: CHO cells expressing human ERG
// boundary case: IC20 equal to 400 nM maps to not satisfied; strictly smaller maps to satisfied

Query string: Lab note: IC20 threshold 400 nM. Does this molecule come in strictly under it? COCCN(C)c1ccc(NC(=O)c2nc(-c3ccccc3)oc2C(F)(F)F)cn1
Result string: satisfied

Query string: Lab note: IC20 threshold 400 nM. Does this molecule come in strictly under it? CCOC(=O)N1CCN(c2ccc(NC(=O)c3nc(-c4ccccc4)oc3C(F)(F)F)cn2)CC1
Result string: not satisfied

Query string: Lab note: IC20 threshold 400 nM. Does this molecule come in strictly under it? O=C(Nc1ccc(N2CCN(C(=O)[C@H]3CC[C@@H](C(=O)O)CC3)CC2)cc1)c1nc(-c2ccccc2)oc1C(F)(F)F
Result string: not satisfied

Switching to the query record.
Query string: Lab note: IC20 threshold 400 nM. Does this molecule come in strictly under it? CCOC1CN(c2ccc(NC(=O)c3nc(-c4ccccc4)oc3C(F)(F)F)cn2)C1
Result string: satisfied

###

measurement-notes: Cmax in Beagle dog at 10 mg/kg, po by LC-MS/MS
Format: ADME, organism-based, Canis lupus familiaris
Design: dose 10 mg/kg, route oral
test-settings: in vivo
reported-metric: Cmax (µM)
Field format: number, assumed µM, no unit text.

Query string: // returns reported Cmax for input O=C(Nc1ccc(C2CCN(C(=O)[C@H]3CC[C@H](C(=O)O)CC3)CC2)cc1)c1nc(-c2ccccc2)oc1C(F)(F)F
Result string: 4.7

###

measurement-notes: Clearance in Hanover Wistar rat at 5 mg/kg, iv
Type: ADME, organism-based
Parameters: dose 5 mg/kg, route intravenous
test-settings: in vivo
reported-metric: clearance (mL/min/kg)
Field format: number, assumed mL/min/kg, no unit text.

Query string: // returns reported clearance for input O=C(Nc1ccc(C2CCN(C(=O)[C@H]3CC[C@H](C(=O)O)CC3)CC2)cc1)c1nc(-c2ccccc2)oc1C(F)(F)F
Result string: 0.38

###

target-or-test-system: UniProt:Q96PD7
Sequence (Q96PD7 whole entry): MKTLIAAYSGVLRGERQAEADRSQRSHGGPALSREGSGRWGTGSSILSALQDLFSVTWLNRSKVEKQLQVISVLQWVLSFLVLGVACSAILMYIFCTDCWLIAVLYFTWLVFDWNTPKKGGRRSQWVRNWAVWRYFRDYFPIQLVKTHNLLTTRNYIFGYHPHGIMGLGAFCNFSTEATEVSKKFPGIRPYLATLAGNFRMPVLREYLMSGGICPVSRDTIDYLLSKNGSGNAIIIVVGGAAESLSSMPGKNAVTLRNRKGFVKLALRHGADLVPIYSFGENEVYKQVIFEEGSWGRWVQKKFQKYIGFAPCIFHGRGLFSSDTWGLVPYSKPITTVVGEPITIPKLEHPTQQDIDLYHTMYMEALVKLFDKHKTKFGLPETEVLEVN
reported-metric: IC50

Query string: What is its IC50 for UniProt:Q96PD7? Entry: O=C(Nc1ccc(C2CCN(C(=O)[C@H]3CC[C@H](C(=O)O)CC3)CC2)cc1)c1nc(-c2ccccc2)oc1C(F)(F)F
Result string: > 100 µM

###

measurement-notes: Tmax in Hanover Wistar rat at 10 mg/kg, po
Format: ADME, organism-based
Set-up: dose 10 mg/kg, route oral
test-settings: in vivo
reported-metric: Tmax (h)
Field format: number, assumed h, no unit text.

Query string: // returns reported Tmax for input O=C(Nc1ccc(C2CCN(C(=O)[C@H]3CC[C@H](C(=O)O)CC3)CC2)cc1)c1nc(-c2ccccc2)oc1C(F)(F)F
Result string: 12

###

measurement-notes: Extrapolated AUC in Beagle dog at 10 mg/kg, po
Format: ADME, organism-based, Canis lupus familiaris
Set-up: dose 10 mg/kg, route oral
test-settings: in vivo
reported-metric: AUC (µM·h)
Field format: number, assumed µM·h, no unit text.

Query string: // returns reported AUC for input O=C(Nc1ccc(C2CCN(C(=O)[C@H]3CC[C@H](C(=O)O)CC3)CC2)cc1)c1nc(-c2ccccc2)oc1C(F)(F)F
Result string: 77.9
